Entry source: ChEMBL document CHEMBL3988442

species on record: Homo sapiens; test: To identify inhibition of the IFN signalling (Jak-Stat) pathway via expression of an eGFP reporter gene under the control of an IFN-stimulated response element (ISRE) containing MxA promoter.; type: functional; parameters: scale not given: direction of the effect not stated beside the values; settings: 30 µM
quantity kind: Percent Effect (%)
Give your result in % as a bare value.

[Q] Field request: Percent Effect | item: "CNC(=O)[C@@]12CCO[C@@H]1CCN(Cc1scnc1C)C2"
[A] 5.25

[Q] Consider next the compound "O=C(O)CCc1cc2n(n1)CCCN(C(=O)c1ccc3cc[nH]c3c1)C2" in the same way.
[A] -2.64

[Q] Consider next the compound Cn1cc(C2COC3(CCN(C(=O)Cn4cccn4)CC3)C2)cn1 (centres undefined) in the same way.
[A] 3.24

[Q] Consider next the compound Cc1c[nH]c(CN(C)C(=O)C2CC(=O)N(Cc3ccncc3)C2)n1 (centres undefined) in the same way.
[A] 0.971

[Q] Consider next the compound O=C(Nc1cccc(N2CCCC2)c1)C1CCCN1c1nccs1 (centres undefined) in the same way.
[A] -2.5

[Q] Consider next the compound CCNC(c1ccc(OC)cc1)c1cccnc1 (centres undefined) in the same way.
[A] 6.89

[Q] Consider next the compound "CCn1cc(CN2C[C@@H]3CCCN3C[C@@H]2CCSC)c(C)n1" in the same way.
[A] 3.9

[Q] Consider next the compound COc1ccc(-n2ncc(C(=O)NCC3COC(C)(C)O3)c2N)cc1 (centres undefined) in the same way.
[A] 15.7

[Q] Consider next the compound "N#Cc1c(C2CC2)cc(-c2ccc(O)cc2)nc1N" in the same way.
[A] 48.6

[Q] Consider next the compound "CN1CCCN(c2nccc(-c3c[nH]nc3C3CCCCC3)n2)CC1" in the same way.
[A] 23

[Q] Consider next the compound "Cc1ccc(CN2CCn3cc(CN(C)Cc4ccco4)nc3C2)o1" in the same way.
[A] 7.34

[Q] Consider next the compound Cn1cccc1C(=O)N1CCCC2(CCCN2Cc2cccnc2)C1 (centres undefined) in the same way.
[A] 9.38

[Q] Consider next the compound CNc1cc(N2CCCC2CNCc2ccc(Cl)o2)ncn1 (centres undefined) in the same way.
[A] 22

[Q] Consider next the compound Cn1nnc2cc(C(=O)N3CCCC3Cc3ccccc3)ccc21 (centres undefined) in the same way.
[A] 7.53

[Q] Consider next the compound CN(C)C(=O)NC1COC2(CCN(C(=O)Nc3ccccc3)CC2)C1 (centres undefined) in the same way.
[A] 3.6

[Q] Consider next the compound O=C1C(NCc2nnc3n2CCCC3)CCN1CC(F)(F)F (centres undefined) in the same way.
[A] 4.98

[Q] Consider next the compound CCc1n[nH]c(C2CN(C(=O)c3ncoc3C(C)C)CCO2)n1 (centres undefined) in the same way.
[A] 17.6

[Q] Consider next the compound CNc1cc(C)nc(C2CN(Cc3ccc(C)nc3)CCO2)c1 (centres undefined) in the same way.
[A] 0.717

[Q] Consider next the compound "Cc1nc(CCNC(=O)NCc2ccc(N(C)C)nc2)cs1" in the same way.
[A] -114

[Q] Consider next the compound N#Cc1cn(C2CC2)c(=O)n(CC(O)c2ccccc2F)c1=O (centres undefined) in the same way.
[A] 0.878

[Q] Consider next the compound COCC(=O)N1CCC2(CC1)CC(CC(=O)NC1CC1)c1ccccc12 (centres undefined) in the same way.
[A] -8.57

[Q] Consider next the compound "COCCO[C@H]1CCN(C(=O)C2CCOCC2)[C@H]1Cc1ccncc1" in the same way.
[A] 16.1

[Q] Consider next the compound "Cn1ccc2ccnc(CC3CN(C(=O)C4CCC(F)(F)CC4)C3)c21" in the same way.
[A] 1.45

[Q] Consider next the compound "CCCS(=O)(=O)N1CCN(c2cc(-n3cnc(C)c3C)nc(C)n2)CC1" in the same way.
[A] -2.89
